measuredTarget: Fructose-bisphosphate aldolase (Mycobacterium tuberculosis (strain ATCC 25618 / H37Rv)) (UniProt P9WQA3)
Sequence (P9WQA3 whole entry, looked up): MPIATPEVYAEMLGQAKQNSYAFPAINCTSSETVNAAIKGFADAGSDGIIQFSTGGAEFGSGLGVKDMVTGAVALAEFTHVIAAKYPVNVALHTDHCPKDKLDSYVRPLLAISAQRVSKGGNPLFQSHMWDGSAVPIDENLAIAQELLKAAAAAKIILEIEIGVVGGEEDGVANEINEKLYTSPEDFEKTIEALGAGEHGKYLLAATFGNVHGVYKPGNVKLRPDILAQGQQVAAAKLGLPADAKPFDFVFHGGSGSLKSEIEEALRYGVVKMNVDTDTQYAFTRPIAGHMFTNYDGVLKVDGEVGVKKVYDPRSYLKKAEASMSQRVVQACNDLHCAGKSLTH
methodNotes: Mtb FBA enzyme inhibitors, primary screen, biochemical, fluorescence, strain H37Rv (AID 588726)
conditionNotes: purified M. tuberculosis FBA, fluorescence read-out, at 1 µM
Screen size: about 360,000 compounds; about 8,200 (2.3%) were called active. Cut-off read from the data, not from the text of the source: active = inhibition above about 27%; inactive = the rest. The full list was thinned out, with actives kept by preference.
// classify into YES (active), NO (inactive)

Reference set, count: 6
N#Cc1c(N)n(CCOC(=O)c2ccc(Cl)cc2)c2nc3ccccc3nc12; YES
Cc1ccc(-c2nc3ccccc3[nH]c2=O)cc1; YES
Cc1ccc(-n2cc(CN(C)Cc3nccn3C)c(-c3cccc(C)c3)n2)cc1; NO
CCC(O)C1CCN(Cc2cn(-c3ccc(OC)cc3)nc2-c2cccc(F)c2)CC1 (stereo unspecified); NO
CCCCNC(=O)CCNC(=O)c1ccc(C(C)(C)C)cc1; NO
COc1ccc(-n2cc(CN(C)Cc3n[nH]c(=O)[nH]3)c(-c3cccc(F)c3)n2)cc1; YES

Switching to the query record.
[ask] Each compound tested received a call. Report the one for O=c1[nH]c2ccccc2n2c(-c3ccccc3)nnc12 .
[reply] NO
